Molecular target: Renin (Homo sapiens)
Construct: Das Blut wird von freiwilligen Probanden gewonnen
Sequence (P00797 67-406): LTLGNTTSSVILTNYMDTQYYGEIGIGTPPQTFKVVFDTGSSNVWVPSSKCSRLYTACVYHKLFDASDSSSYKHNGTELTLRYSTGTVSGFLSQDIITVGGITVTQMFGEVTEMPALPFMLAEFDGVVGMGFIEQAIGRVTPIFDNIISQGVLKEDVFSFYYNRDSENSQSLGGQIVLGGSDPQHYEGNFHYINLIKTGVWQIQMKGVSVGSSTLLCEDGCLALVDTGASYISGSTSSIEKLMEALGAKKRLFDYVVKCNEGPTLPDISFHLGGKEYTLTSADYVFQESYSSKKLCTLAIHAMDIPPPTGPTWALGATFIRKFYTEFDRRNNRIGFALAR
Experiment: Renin inhibition in human plasma (angiotensin I release, radioimmunoassay)
Details: 37°C, 1 h incubation, phosphate buffer pH 7.4, max. 1 % DMSO, read from % residual plasma renin activity vs. concentration, read-out: IC₅₀
Catalogue of pIC50 readings, one per entry.
pIC50 here is simply -log10 of the concentration when that concentration is written in mol/L.

// solved cases for pIC50 follow
{"compoundString": "CC(C)(C)NC(=O)N[C@@H](Cc1ccccc1)C(=O)N[C@@H](Cc1c[nH]cn1)C(=O)N[C@@H](CC1CCCCC1)[C@@H](O)CCCc1ccccn1", "pIC50": 6.00}
{"compoundString": "CC(C)(C)NC(=O)N[C@@H](Cc1ccccc1)C(=O)N[C@@H](CC(N)=O)C(=O)N[C@@H](CC1CCCCC1)[C@@H](O)CCCc1ccccn1", "pIC50": 5.10}
{"compoundString": "CCC[C@H](NC(=O)[C@H](Cc1ccccc1)NC(=O)NCC(C)(C)C)C(=O)N[C@@H](CC1CCCCC1)[C@@H](O)CCCc1ccccn1", "pIC50": 6.05}

### Prompt Name the reported pIC50 value associated with the compound `CCC[C@H](NC(=O)[C@H](Cc1ccccc1)NC(=O)NCC)C(=O)N[C@@H](CC1CCCCC1)[C@@H](O)CCCc1ccccn1`
### Response 6.42

====

Molecular target: Renin (Homo sapiens, UniProt P00797)
Construct: Das Blut wird von freiwilligen Probanden gewonnen
Sequence (P00797 67-406): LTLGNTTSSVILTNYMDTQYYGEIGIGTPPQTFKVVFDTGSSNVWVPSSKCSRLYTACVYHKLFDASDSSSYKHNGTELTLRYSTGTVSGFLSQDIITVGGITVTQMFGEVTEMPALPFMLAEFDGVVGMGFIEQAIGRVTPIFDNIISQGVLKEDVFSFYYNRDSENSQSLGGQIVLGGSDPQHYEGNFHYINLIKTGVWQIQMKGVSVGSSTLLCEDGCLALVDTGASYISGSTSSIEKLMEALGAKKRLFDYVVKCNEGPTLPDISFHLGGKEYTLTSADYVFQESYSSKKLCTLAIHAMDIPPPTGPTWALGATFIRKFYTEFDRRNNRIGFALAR
Assay: Renin inhibition in human plasma (angiotensin I release, radioimmunoassay)
Settings: 37°C, 1 h incubation, phosphate buffer pH 7.4, max. 1 % DMSO, read from % residual plasma renin activity vs. concentration, read-out: IC₅₀
Protocol: Die Wirksamkeit von Renin-Hemmern kann durch in-vitro-Tests überprüft werden. Hierbei wird die Verminderung der Bildung von Angiotensin I in verschiedenen Systemen (Humanplasma, gereinigtes Humanrenin) gemessen. Z.B. Humanplasma, welches sowohl Renin als auch Angiotensinogen enthält, wird bei 37°C mit der zu testenden Verbindung inkubiert. […]
pIC50: −log10 of the molar value.
Would you mind labelling by pIC50? At or over 6 is y, under is n.

# count of solved cases: 5
{"compoundString": "CCC[C@H](NC(=O)[C@H](Cc1ccccc1)NC(=O)NC(C)(C)C(=O)O)C(=O)N[C@@H](CC1CCCCC1)[C@@H](O)CCCc1ccccn1", "assignedLabel": "y"}
{"compoundString": "CCC[C@H](NC(=O)[C@H](Cc1ccccc1)NC(=O)NC(C)(C)C)C(=O)N[C@@H](CC1CCCCC1)[C@@H](O)CCCc1ccccn1", "assignedLabel": "y"}
{"compoundString": "CCC[C@H](NC(=O)[C@H](Cc1ccccc1)NC(=O)NC(C)(C)C)C(=O)N[C@@H](CC1CCCCC1)[C@H](O)CCCc1ccccn1", "assignedLabel": "n"}
{"compoundString": "CCC[C@H](NC(=O)[C@H](Cc1ccccc1)NC(=O)NC(C)C)C(=O)N[C@@H](CC1CCCCC1)[C@H](O)CCCc1ccccn1", "assignedLabel": "n"}
{"compoundString": "CCNC(=O)N[C@@H](Cc1ccccc1)C(=O)N[C@@H](Cc1c[nH]cn1)C(=O)N[C@@H](CC1CCCCC1)[C@@H](O)CCCc1ccccn1", "assignedLabel": "n"}

Next item in the queue.
### Prompt Entry `CCC[C@H](NC(=O)[C@H](Cc1ccccc1)NC(=O)NCC(C)(C)N)C(=O)N[C@@H](CC1CCCCC1)[C@@H](O)CCCc1ccccn1` : is its pIC50 no less than 6?
### Response y

====

Catalogue of IC50 readings, one per entry.
Target: Renin (Homo sapiens, UniProt P00797)
Construct: Das Blut wird von freiwilligen Probanden gewonnen
Sequence (P00797 67-406): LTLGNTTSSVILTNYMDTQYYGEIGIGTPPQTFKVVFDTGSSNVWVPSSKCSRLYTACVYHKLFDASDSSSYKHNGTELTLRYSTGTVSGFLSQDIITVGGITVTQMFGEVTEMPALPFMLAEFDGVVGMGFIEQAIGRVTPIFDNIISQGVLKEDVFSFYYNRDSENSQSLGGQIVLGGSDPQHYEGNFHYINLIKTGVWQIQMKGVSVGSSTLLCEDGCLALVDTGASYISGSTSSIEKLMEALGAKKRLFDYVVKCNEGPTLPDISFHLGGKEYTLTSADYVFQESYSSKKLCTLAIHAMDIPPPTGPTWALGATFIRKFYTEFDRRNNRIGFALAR
Test: Renin inhibition in human plasma (angiotensin I release, radioimmunoassay)
Conditions: 37°C, 1 h incubation, phosphate buffer pH 7.4, max. 1 % DMSO, read from % residual plasma renin activity vs. concentration, read-out: IC₅₀
Experimental: Die Wirksamkeit von Renin-Hemmern kann durch in-vitro-Tests überprüft werden. Hierbei wird die Verminderung der Bildung von Angiotensin I in verschiedenen Systemen (Humanplasma, gereinigtes Humanrenin) gemessen. Z.B. Humanplasma, welches sowohl Renin als auch Angiotensinogen enthält, wird bei 37°C mit der zu testenden Verbindung inkubiert. […]
The figure you give is taken to be in nM; do not add the unit.

// solved cases for IC50 follow
{"compoundString": "CCC[C@H](NC(=O)[C@H](Cc1cccs1)NC(=O)NC(C)(C)C)C(=O)N[C@@H](CC1CCCCC1)[C@@H](O)CCCc1ccccn1", "reportedProperty": "IC50", "experimentalResult": 260}
{"compoundString": "CCNC(=O)N[C@@H](Cc1ccccc1)C(=O)N[C@@H](Cc1c[nH]cn1)C(=O)N[C@@H](CC1CCCCC1)[C@H](O)CCCc1ccccn1", "reportedProperty": "IC50", "experimentalResult": 900}

### Prompt Name the reported IC50 value associated with the compound `CCC[C@H](NC(=O)[C@H](Cc1ccccc1)NC(=O)NC(C)C)C(=O)N[C@@H](CC1CCCCC1)[C@@H](O)CCCc1ccccn1`
### Response 620
